The origin of these recorded values is patent US20250163038A1.

test system: Jurkat (clone E6-1) cells with NFAT luciferase reporter; assay: Jurkat reporter assay (NFAT Luciferase); type: cell-based; conditions: Homo sapiens; Jurkat NFAT luciferase reporter cells, anti-CD3 stimulation, 6 hr; read-out: Jurkat NFAT EC50
pEC50: −log10 of the molar value.
Endpoint Label: pEC50

CC(C)CC1(CNCc2cc(C(F)(F)F)c3oc(-c4cccc(-c5ccc(F)cc5-c5nncn5C)c4)nc3c2)CCC1 | 6.00 to 6.70
Cn1cnnc1-c1cc(F)ccc1-c1cccc(-c2nc3cc(CNCC(=O)N4CCC4)cc(C(F)(F)F)c3o2)c1 | 5.00 to 6.00
Cn1cnnc1-c1cc(F)ccc1-c1cccc(-c2nc3cc(C(=O)O)cc(C(F)(F)F)c3o2)c1 | 5.00 to 6.00
Cn1cnnc1-c1cc(F)ccc1-c1cccc(-c2nc3cc(CNCC(C)(C)F)cc(C(F)(F)F)c3o2)c1 | > 6.70
Cn1cnnc1-c1cc(F)ccc1-c1cccc(-c2nc3cc(CN4CCC5(CC4)CC5)cc(C(F)(F)F)c3[nH]2)c1 | 6.00 to 6.70
COCCNCc1cc2nc(-c3cc(-c4ccc(F)cc4-c4nncn4C)cc(C4CC4)n3)oc2c(F)c1F | > 6.70

Okay, now this compound:
What does the data say about its pEC50? Entry: Cn1cnnc1-c1cc(C#N)ccc1-c1cc(-c2nc3cc(CNCC4CCC4)ccc3o2)nc(C2CC2)c1 > 6.70

----------
molecular target: Recombinant human Cbl-b (aa 36-427) (Homo sapiens, UniProt Q13191); assay: Cbl-b Biochemical Assay (TR-FRET); conditions: read-out: TR-FRET hCbl-b IC50
Sequence (Q13191 36-427): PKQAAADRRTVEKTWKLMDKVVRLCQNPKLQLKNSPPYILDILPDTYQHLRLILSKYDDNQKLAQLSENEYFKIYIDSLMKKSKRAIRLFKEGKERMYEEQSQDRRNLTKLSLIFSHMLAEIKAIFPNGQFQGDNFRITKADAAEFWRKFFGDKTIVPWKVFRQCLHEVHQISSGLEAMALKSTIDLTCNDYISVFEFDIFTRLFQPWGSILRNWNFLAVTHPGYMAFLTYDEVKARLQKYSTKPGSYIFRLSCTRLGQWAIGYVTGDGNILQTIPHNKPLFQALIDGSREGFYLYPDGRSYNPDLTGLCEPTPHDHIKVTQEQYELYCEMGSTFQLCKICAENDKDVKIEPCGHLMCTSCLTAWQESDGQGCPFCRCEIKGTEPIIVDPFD
Endpoint Label: IC50

These recorded examples may help you get a feel for the data.
Cn1cnnc1-c1cc(F)ccc1-c1cccc(-c2nc3cc(CN[C@@H]4C[C@H](O)C4(C)C)cc(C(F)(F)F)c3o2)c1 [GP-2, Formic Acid] | < 0.2 µM
Cn1cnnc1-c1cnn(C)c1-c1cc(Cl)nc(-c2cc(C(F)(F)F)c[nH]c2=O)c1 [ACR-3] | 10 to 50 µM
Cn1cnnc1-c1cc(F)ccc1-c1cccc(-c2nc3cc(CNC[C@@H](O)C4CC4)cc(C(F)(F)F)c3o2)c1 (single isomer, unassigned) [DT-3] | < 0.2 µM

What does the data say about its IC50? Entry: CC(C)NCc1cc(C(F)(F)F)c2oc(-c3cccc(-c4ccc(F)cc4-c4nncn4C)c3)nc2c1 [EP-2] < 0.2 µM

----------
The entries below are paired with their reported IC50.
Biological target: Recombinant human c-Cbl (aa 47-435) (Homo sapiens, UniProt P22681)
Sequence (P22681 47-435): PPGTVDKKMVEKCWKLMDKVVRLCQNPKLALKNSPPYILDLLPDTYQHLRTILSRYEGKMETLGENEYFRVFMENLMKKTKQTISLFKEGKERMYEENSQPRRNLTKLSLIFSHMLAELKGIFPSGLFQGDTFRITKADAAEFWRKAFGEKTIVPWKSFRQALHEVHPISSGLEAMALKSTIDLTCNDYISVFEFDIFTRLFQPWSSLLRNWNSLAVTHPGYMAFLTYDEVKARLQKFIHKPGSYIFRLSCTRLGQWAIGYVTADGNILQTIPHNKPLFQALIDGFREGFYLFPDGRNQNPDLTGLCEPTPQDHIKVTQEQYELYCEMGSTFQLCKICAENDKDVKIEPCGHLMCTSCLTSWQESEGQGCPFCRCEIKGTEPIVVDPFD
Test: c-Cbl Biochemical Assay (TR-FRET)
Conditions: hc-Cbl Biochemical Assay (TR-FRET); read-out: TR-FRET hcCbl IC50

Cn1cnnc1-c1cc(F)ccc1-c1cccc(-c2nc3cc(CNC4CCCC4)cc(C(F)(F)F)c3o2)c1 | < 200 nM
Cc1cc(CN(C)[C@@H]2CCC[C@@H]2O)cc2nc(-c3cccc(-c4ccc(F)cc4-c4nncn4C)c3)oc12 | < 200 nM
Cn1cnnc1-c1cc(F)ccc1-c1cccc(-c2nc3cc(C(NCC4CCC4)C(F)(F)F)cc(C4CC4)c3o2)c1 (racemic) | 1000 to 10000 nM
CN(Cc1cc2nc(-c3cccc(-c4ccc(F)cc4-c4nncn4C)c3)oc2c(F)c1F)[C@@H]1CCC[C@@H]1O | < 200 nM
C[C@@H]1CN(Cc2cc(C(F)(F)F)c3oc(-c4cccc(-c5ccc(F)cc5-c5nncn5C)c4)nc3c2)CCO1 | 1000 to 10000 nM
Cn1cnnc1[C@]1(c2cccc(-c3nc4cc(CNCC5CCC5)cc(C(F)(F)F)c4o3)c2)C[C@H](C)C1 | < 200 nM

Okay, now this compound:
Test system Recombinant human c-Cbl (aa 47-435) (Homo sapiens, UniProt P22681); read-out IC50; what value for COc1cc(CNCC2CCC2)cc2nc(-c3cccc(-c4ccc(F)cc4-c4nncn4C)c3)oc12 ? < 200 nM

----------
target: Recombinant human c-Cbl (aa 47-435) (Homo sapiens, UniProt P22681); assay: c-Cbl Biochemical Assay (TR-FRET); details: hc-Cbl Biochemical Assay (TR-FRET); read-out: TR-FRET hcCbl IC50
The entries below are paired with their reported IC50.

What does the data say about its IC50? Entry: COC(OC)c1ccc2oc(-c3cccc(-c4ccc(F)cc4-c4nncn4C)c3)nc2c1 [AT-1] 10 to 50 µM

Another compound to look at: Cn1cnnc1-c1cc(F)ccc1-c1cccc(-c2nc3cc([C@@H](CO)N4CCC4)cc(C(F)(F)F)c3o2)c1 (single isomer, unassigned) [DO-7] 0.2 to 1 µM

Another compound to look at: CC(=O)NCCNCc1cc(C(F)(F)F)c2oc(-c3cccc(-c4ccc(F)cc4-c4nncn4C)c3)nc2c1 [HD-2] < 0.2 µM

Another compound to look at: Cn1cnnc1-c1cc(F)ccc1-c1cccc(-c2nc3cc(CN[C@@H]4CCC[C@H]4O)cc(C(F)(F)F)c3o2)c1 [Example W-2] 1 to 10 µM

Another compound to look at: CO[C@H](C)[C@@H](C)NCc1cc(C)c2oc(-c3cc(-c4ccc(F)cc4-c4nncn4C)cc(C4CC4)n3)nc2c1 [AFZ-2] 0.2 to 1 µM

Another compound to look at: Cn1cnnc1-c1cnn(C)c1-c1cc(Cl)nc(-c2cc(C(F)(F)F)c[nH]c2=O)c1 [ACR-3] 10 to 50 µM

Another compound to look at: Cn1cnnc1-c1cc(F)ccc1-c1cccc(-c2nc3cc(CNC4(CO)COC4)cc(C(F)(F)F)c3[nH]2)c1 [BS-1] 1 to 10 µM

----------
molecular target: Recombinant human c-Cbl (aa 47-435) (Homo sapiens, UniProt P22681); assay: c-Cbl Biochemical Assay (TR-FRET); details: hc-Cbl Biochemical Assay (TR-FRET); read-out: TR-FRET hcCbl IC50
Endpoint Label: IC50

These recorded examples may help you get a feel for the data.
COc1cc(CN[C@@H]2CCC[C@@H]2O)cc2nc(-c3cc(-c4ccc(F)cc4-c4nncn4C)cc(C4CC4)n3)oc12 | < 200 nM
C[C@@H](c1cc(C(F)(F)F)c2oc(-c3cccc(C4(Cc5nncn5C)COC4)c3)nc2c1)N1CCC2(CC2)C1 | < 200 nM
COCCN(C)Cc1cc(OC)c2oc(-c3cccc(-c4ccc(F)cc4-c4nncn4C)c3)nc2c1 | 1000 to 10000 nM
Cn1cnnc1-c1cc(F)ccc1-c1cccc(-c2nc3cc(CNCC4(O)CCC4)c(F)c(F)c3o2)c1 | < 200 nM
Cn1cnnc1-c1cc(F)ccc1-c1cccc(-c2nc3cc(CNCC4CCCC4)cc(C(F)(F)F)c3o2)c1 | < 200 nM

What does the data say about its IC50? Entry: COc1cc(CN[C@@H]2CCC[C@@H]2O)cc2nc(-c3cccc(-c4ccc(F)cc4-c4nncn4C)c3)oc12 < 200 nM

Another compound to look at: C[C@H](N[C@@H]1CCC[C@@H]1O)c1cc(C(F)(F)F)c2oc(-c3cccc(-c4ccc(F)cc4-c4nncn4C)c3)nc2c1 < 200 nM

Another compound to look at: Cn1cnnc1-c1cc(F)ccc1-c1cc(-c2nc3cc(CN[C@@H]4CCC[C@@H]4O)ccc3o2)cc(C2CC2)c1 < 200 nM

Another compound to look at: Cc1cc(CNCC2(O)CCC2)cc2nc(-c3cccc(-c4ccc(F)cc4-c4nncn4C)c3)oc12 < 200 nM

Another compound to look at: Cn1cnnc1-c1cc(F)ccc1-c1cccc(-c2nc3cc(CNCC4CCC4)cc(C(F)(F)F)c3o2)c1 < 200 nM

Another compound to look at: Cc1cc(CO)cc2nc(-c3cccc(-c4ccc(F)cc4-c4nncn4C)c3)oc12 1000 to 10000 nM

----------
Biological target: Recombinant human c-Cbl (aa 47-435) (Homo sapiens)
Sequence (P22681 47-435): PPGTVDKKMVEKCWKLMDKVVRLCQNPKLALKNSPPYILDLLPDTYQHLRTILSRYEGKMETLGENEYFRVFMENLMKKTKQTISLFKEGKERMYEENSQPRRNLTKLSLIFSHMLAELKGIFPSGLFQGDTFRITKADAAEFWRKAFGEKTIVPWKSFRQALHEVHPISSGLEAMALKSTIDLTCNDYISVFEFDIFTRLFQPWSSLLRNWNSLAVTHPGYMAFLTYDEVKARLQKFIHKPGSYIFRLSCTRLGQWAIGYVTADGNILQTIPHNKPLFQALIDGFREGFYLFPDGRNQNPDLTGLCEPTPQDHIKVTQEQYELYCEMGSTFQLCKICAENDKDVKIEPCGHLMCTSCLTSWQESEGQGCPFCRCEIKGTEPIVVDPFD
Test: c-Cbl Biochemical Assay (TR-FRET)
The entries below are paired with their reported IC50.

Cn1cnnc1-c1cc(F)ccc1-c1cc(-c2nc3cc(CN[C@@H]4CCC[C@@]4(C)O)cc(F)c3o2)nc(C2CC2)c1 | 200 to 1000 nM
Cc1cc(CN(C)[C@@H]2CCC[C@@H]2O)cc2nc(-c3cc(-c4ccc(F)cc4-c4nncn4C)cc(C4CC4)n3)oc12 | < 200 nM
Cn1cnnc1-c1cc(F)ccc1-c1cc(-c2nc3cc(CN[C@@H]4CCC[C@]4(C)O)cc(F)c3o2)nc(C2CC2)c1 | 200 to 1000 nM

What does the data say about its IC50? Entry: Cn1cnnc1-c1cc(F)ccc1-c1cc(-c2nc3cc(CN[C@@H]4CCC[C@@H]4O)cc(F)c3o2)nc(C2CC2)c1 < 200 nM
